Biological target: GABAA/α3 (α3β3γ2 GABAA receptors) (Homo sapiens, UniProt P18507+P34903)
Construct: expressed in transfected cells
Assay: Competitive binding assay, [3H]flunitrazepam
Details: αxβ3γ2, [3H]flunitrazepam competition; read-out: Binding Affinity at GABAA/α3
ASSAY READOUT: Ki
Don't forget the unit after the value.

Ask: Which Ki is reported with GABAA/α3 (α3β3γ2 GABAA receptors) (Homo sapiens, UniProt P18507+P34903) for this entry: `C[Si](C)(C)C#Cc1ccc2c(c1)C(c1ccccc1F)=NCc1c(C(=O)OCC(F)(F)F)ncn1-2` ?
Reply: 183 nM

* * *

Target: GABAA/α6 (α6β3γ2 GABAA receptors) (Homo sapiens, UniProt P18507+Q16445)
Construct: expressed in transfected cells
Assay: Competitive binding assay, [3H]flunitrazepam
Details: read-out: Binding Affinity at GABAA/α6; αxβ3γ2, [3H]flunitrazepam competition
pKi: −log10 of the molar value.
ASSAY READOUT: pKi

Ask: Returns the measured pKi for the input compound. Input: C#Cc1ccc2c(c1)C(c1ccccc1)=NC(C)c1c(C(=O)OCC)ncn1-2 (single isomer, unassigned)
Reply: < 5.30

* * *

Consider the following compounds; for each one, report its Ki.
Target: GABAA/α6 (α6β3γ2 GABAA receptors) (Homo sapiens, UniProt P18507+Q16445)
Construct: expressed in transfected cells
Test: Competitive binding assay, [3H]flunitrazepam

# example entries with known answers
INSERT INTO results (compound, recorded_result) VALUES
  ('C#Cc1ccc2c(c1)C(c1ccccc1F)=NC(C)c1c(C(=O)OCC)ncn1-2 (single isomer, unassigned) [SH-053-2′F-S-CH3]', '> 5 µM'),
  ('C#Cc1ccc2c(c1)C(c1ccccc1)=NCC(=O)N2C', '> 1 µM'),
  ('O=C(OCC(F)(F)F)c1ncn2c1CN=C(c1ccccc1F)c1cc(Br)ccc1-2', '3.39 µM'),
  ('C#Cc1ccc2c(c1)C(c1cccs1)=NCc1c(C(=O)OCC)ncn1-2', '0.362 µM'),
  ('C#Cc1ccc2c(c1)C(c1ccccc1F)=NC(C)c1c(C(=O)OCC)ncn1-2 (single isomer, unassigned) [SH-053-2′F-R-CH3]', '> 5 µM');

Provide the reported Ki of each entry below, same order.
1. C#Cc1ccc2c(c1)C(c1ccccc1)=NC(C)c1c(C(=O)OCC)ncn1-2 (single isomer, unassigned)
2. CN1C(=O)CN=C(c2ccccc2)c2cc(Cl)ccc21 [Diazepam, reference compound]

Reply:
1: > 5 µM; 2: > 1 µM

* * *

Tested on: minimal muscular or neurological impairment
Assay: Toxicity (TOX), rotorod procedure, mice
Assay type: in vivo
Settings: Mice IP, 100 mg/kg, 0.5 hr
ASSAY READOUT: TOX (Rotorod Test), animals toxic/tested

Completed entries (count: 2):
INSERT INTO measurements (compound, recorded_result) VALUES
  ('C#Cc1ccc2c(c1)C(c1ccccn1)=NCc1c(C(=O)OCC)ncn1-2', '0/8'),
  ('C#Cc1ccc2c(c1)C(c1ccccc1)=NCc1c(C(=O)OCC)ncn1-2', '0/8');

Below is a list of compounds. For each, state its recorded TOX (Rotorod Test), animals toxic/tested.
1. C#Cc1ccc2c(c1)C(c1cccs1)=NCc1c(C(=O)OCC)ncn1-2
2. C#Cc1ccc2c(c1)C(c1ccccc1F)=NC(C)c1c(C(=O)OCC)ncn1-2 (single isomer, unassigned)

Reply:
1: 0/8; 2: 1/8
